Target: androgen receptor (AR-LBD) (Rattus norvegicus, UniProt P15207)
Construct: 5 μL of 2×AR-LBD/Fluoromone AL Red Complex contained in the kit; purchased Invitrogen
Sequence (P15207 651-882 limits assumed): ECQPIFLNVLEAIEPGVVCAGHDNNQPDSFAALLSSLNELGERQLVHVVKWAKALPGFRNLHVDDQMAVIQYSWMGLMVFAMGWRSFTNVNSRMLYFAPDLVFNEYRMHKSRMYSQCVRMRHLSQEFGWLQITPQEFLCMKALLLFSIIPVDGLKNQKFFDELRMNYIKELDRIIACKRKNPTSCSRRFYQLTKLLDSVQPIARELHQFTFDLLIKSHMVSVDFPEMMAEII
Assay: Evaluation of androgen receptor affinity (PolarScreen Androgen Receptor Competitor Assay Kit, Red; fluorescence polarization)
Conditions: 22° C. for 5 hours, relative to binding rate of 1 μM DHT, read-out: AR affinity (pEC50) (converted)
measurement-name: EC50 (nM)

(a) CCc1oc(N(Cc2ccc(C(F)(F)F)c(F)c2)c2ccc(C#N)cc2)nc1C(=O)NS(C)(=O)=O [Compound 655]
(b) Cc1sc(N(CCC2CCCC2)Cc2ccccc2)nc1C(=O)NS(C)(=O)=O [Compound 683]
**Q:** Min EC50? a | b Field: selected label. Fill in the label of the entry you choose.
**A:** a
(a: 39.8 nM, b: 100 nM)

(I) Cc1sc(N(Cc2ccc(Br)cc2Cl)c2ccc(C#N)cc2)nc1C(=O)NS(C)(=O)=O [Example 183]
(II) CS(=O)(=O)NC(=O)c1nc(N(Cc2cccc(OC(F)(F)F)c2)c2ccc(C#N)cc2)sc1Br [Example 252]
**Q:** Looking at I and II , which one comes out lower in EC50 terms? Bench note: the answer is the label of the chosen record.
**A:** II

---

molecular target: human androgen receptor (Homo sapiens); construct: expressed in transfected cells; host or cells: HEK293; assay: Reporter assay of an androgen receptor responsive sequence (luciferase, transiently transfected HEK293 cells); assay type: cell-based; conditions: 24 hours incubation, relative to activity of 100 nM DHT, read-out: AR transcriptive activity (pEC50) (converted)
Sequence (P10275 whole entry): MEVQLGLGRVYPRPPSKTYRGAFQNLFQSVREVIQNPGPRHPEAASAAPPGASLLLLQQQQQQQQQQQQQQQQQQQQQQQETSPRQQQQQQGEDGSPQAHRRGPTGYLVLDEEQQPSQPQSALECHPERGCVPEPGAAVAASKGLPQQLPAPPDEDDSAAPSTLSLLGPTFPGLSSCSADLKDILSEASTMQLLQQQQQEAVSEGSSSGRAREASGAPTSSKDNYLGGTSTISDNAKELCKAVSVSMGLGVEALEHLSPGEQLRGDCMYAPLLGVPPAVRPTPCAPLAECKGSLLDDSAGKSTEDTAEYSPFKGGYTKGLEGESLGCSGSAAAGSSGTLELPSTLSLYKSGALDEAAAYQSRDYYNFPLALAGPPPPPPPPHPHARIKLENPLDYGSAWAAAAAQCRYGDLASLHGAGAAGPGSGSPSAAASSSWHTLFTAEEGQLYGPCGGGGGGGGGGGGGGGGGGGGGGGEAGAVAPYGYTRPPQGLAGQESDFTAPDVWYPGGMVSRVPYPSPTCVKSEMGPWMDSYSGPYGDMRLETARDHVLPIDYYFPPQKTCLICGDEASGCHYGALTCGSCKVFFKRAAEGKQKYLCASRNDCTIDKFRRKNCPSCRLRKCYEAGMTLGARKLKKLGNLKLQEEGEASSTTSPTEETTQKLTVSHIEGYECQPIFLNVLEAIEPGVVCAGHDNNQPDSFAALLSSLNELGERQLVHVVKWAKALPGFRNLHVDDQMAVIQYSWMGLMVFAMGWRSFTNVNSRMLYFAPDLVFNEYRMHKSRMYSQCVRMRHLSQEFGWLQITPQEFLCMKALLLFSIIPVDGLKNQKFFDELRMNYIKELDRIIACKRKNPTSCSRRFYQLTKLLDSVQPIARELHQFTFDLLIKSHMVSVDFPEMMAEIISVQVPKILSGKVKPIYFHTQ
measurement-name: EC50 (nM)

# molecule-smiles, reading-unit, EC50
data = [
    ("Cc1sc(N(Cc2ccc(F)cc2F)c2ccc(C#N)cc2)nc1C(=O)NS(C)(=O)=O", "nM", 126),
]

(P) Cc1sc(N(Cc2ccccc2)c2ccc(C#N)cc2)nc1C(=O)NS(=O)(=O)Cc1ccncc1
(Q) Cc1sc(N(Cc2ccc3ncsc3c2)c2ccc(C#N)cc2)nc1C(=O)NS(C)(=O)=O
(R) Cc1sc(N(Cc2ccc3nccnc3c2)c2ccc(C#N)cc2)nc1C(=O)NS(C)(=O)=O
**Q:** # desc sort on EC50 across 3 compounds Note for the reader: the ranking is given by listing the labels in the order requested.
**A:** R, P, Q
(R: 3160 nM, P: 158 nM, Q: 50.1 nM)

---

Biological target: androgen receptor (AR-LBD) (Rattus norvegicus, UniProt P15207)
Construct: 5 μL of 2×AR-LBD/Fluoromone AL Red Complex contained in the kit; purchased Invitrogen
Sequence (P15207 651-882 limits assumed): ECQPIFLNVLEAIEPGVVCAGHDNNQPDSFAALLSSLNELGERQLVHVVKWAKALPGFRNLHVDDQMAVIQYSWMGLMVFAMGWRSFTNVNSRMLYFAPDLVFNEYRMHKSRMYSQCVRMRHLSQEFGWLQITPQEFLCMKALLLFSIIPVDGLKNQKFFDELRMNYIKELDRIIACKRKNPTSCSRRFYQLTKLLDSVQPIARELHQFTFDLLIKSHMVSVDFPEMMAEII
Test: Evaluation of androgen receptor affinity (PolarScreen Androgen Receptor Competitor Assay Kit, Red; fluorescence polarization)
Conditions: 22° C. for 5 hours, relative to binding rate of 1 μM DHT, read-out: AR affinity (pEC50) (converted)
measurement-name: EC50 (µM)

Examples with their reported EC50 follow.
# molecule, reading-unit, data-value
rows = [
    ("Cc1sc(N(C[C@@H]2CCCC[C@H](O)C2)c2ccc(C#N)cc2)nc1C(=O)NS(C)(=O)=O (racemic)", "µM", 0.631),
    ("COc1cccc(CN(c2ccc(C#N)cc2)c2nc(C(=O)NS(C)(=O)=O)c(Cl)s2)c1", "µM", 0.0398),
]

(I) Cc1sc(N(CCc2ccc3c(c2)OCO3)Cc2ccccc2)nc1C(=O)NS(C)(=O)=O
(II) Cc1sc(N(Cc2ccccc2)c2ccc(C(F)(F)F)nc2)nc1C(=O)NS(C)(=O)=O
**Q:** Exercise: compare I and II ; which one has the greater EC50? Identify your pick by its label.
**A:** II
(II: 0.398 µM, I: 0.0794 µM)

(P) Cc1sc(N(Cc2ccc(C(F)(F)F)nc2)c2ccc(C#N)cc2)nc1C(=O)NS(C)(=O)=O
(Q) Cc1sc(N(CCc2ccccc2O)c2ccc(C#N)cc2)nc1C(=O)NS(C)(=O)=O
(R) Cc1sc(N(Cc2cccc(F)c2)c2ccc(C#N)cc2)nc1C(=O)NS(C)(=O)=O
(S) Cc1sc(N(Cc2cnc(-c3ccccc3F)s2)c2ccc(C#N)cc2)nc1C(=O)NS(C)(=O)=O
(T) Cc1sc(N(Cc2ccccc2OC(F)(F)F)c2ccc(C#N)cc2)nc1C(=O)NS(C)(=O)=O
**Q:** Output the entries ranked by EC50 from maximum down to minimum. Output spec: a listing of the labels in the requested order.
**A:** T, P, R, S, Q
(T: 0.631 µM, P: 0.2 µM, R: 0.0794 µM, S: 0.0398 µM, Q: 0.0251 µM)
